These measurements were taken from ChEMBL document CHEMBL1127992.

- testTarget: D(2) dopamine receptor (Homo sapiens, UniProt P14416)
- Sequence (P14416 whole entry): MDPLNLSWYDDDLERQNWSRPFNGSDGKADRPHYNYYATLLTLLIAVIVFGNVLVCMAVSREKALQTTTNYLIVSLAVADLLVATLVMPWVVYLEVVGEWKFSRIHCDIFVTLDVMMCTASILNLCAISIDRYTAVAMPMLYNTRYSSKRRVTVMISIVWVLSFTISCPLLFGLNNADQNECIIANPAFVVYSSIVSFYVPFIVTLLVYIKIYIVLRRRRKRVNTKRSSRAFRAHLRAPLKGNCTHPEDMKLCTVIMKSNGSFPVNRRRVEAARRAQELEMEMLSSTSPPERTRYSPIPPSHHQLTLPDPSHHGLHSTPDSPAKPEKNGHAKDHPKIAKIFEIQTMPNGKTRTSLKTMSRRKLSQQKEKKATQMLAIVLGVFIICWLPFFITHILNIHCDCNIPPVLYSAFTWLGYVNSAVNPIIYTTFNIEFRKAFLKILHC
- protocol: Displacement of [3H]-spiperone from dopamine D2 receptor
measureName: pIC50
The read-out pIC50 is expressed as -log10 of concentration in moles per litre.

These solved cases illustrate the format of a correct answer.
{"sampleSmiles": "C(#Cc1ccccc1)CN(c1ccccc1)C1CCN(Cc2ccccc2)CC1.O=C(O)/C=C/C(=O)O", "recordedMeasurement": 6.05}
{"sampleSmiles": "CN(CC#Cc1ccccc1)C1CCN(Cc2ccccc2)CC1.O=C(O)/C=C/C(=O)O", "recordedMeasurement": 5.39}
{"sampleSmiles": "O=C(C#Cc1ccccc1)NC1CCN(Cc2ccccc2)CC1.O=C(O)/C=C/C(=O)O", "recordedMeasurement": 5.60}
{"sampleSmiles": "CN(C(=O)C#Cc1ccccc1)C1CCN(Cc2ccccc2)CC1.O=C(O)/C=C/C(=O)O", "recordedMeasurement": 5.31}
{"sampleSmiles": "CN(C(=O)/C=C/c1ccccc1)C1CCN(Cc2ccccc2)CC1.O=C(O)/C=C/C(=O)O", "recordedMeasurement": 5.15}

Shift focus to the following entry.
get_value(item= O=C(/C=C/c1ccccc1)NC1CCN(Cc2ccccc2)CC1.O=C(O)/C=C/C(=O)O , readout=pIC50) returns 5.33
